Assign Fold change in RNA expression between the ON state and the OFF state to each entry below.
- Tested on: Renilla luciferase RNA
- assayOverview: Barcoded aptazyme variant library screen: un-cleaved Renilla luciferase RNA by barcode read counts, HEK293-T cells
- Assay type: cell-based
- conditionSummary: un-cleaved Renilla luciferase RNA by barcode read counts; with 1 mM theophylline (ON) over without theophylline (OFF); HEK293-T cells; triplicate
One number for each entry.

Consider the reported Fold change in RNA expression between the ON state and the OFF state for these molecules:
>  <molecule>
RA426 (nucleic acid, expressed or natural sequence) DNA: GCGCGTCCTGGATTCGCGGAAACGCGTACATCCAGCTGACGAGTCCCAAATAGGACGCCGGAATACCAGCATCGTCTTGATGCCCTTGGAAGTCCGGAAACGCGC

>  <observedResult>
0.6

$$$$
>  <molecule>
RA322 (nucleic acid, expressed or natural sequence) DNA: GCGCGTCCTGGATTCGCGGAGAATACCAGCATCGTCTTGATGCCCTTGGAAGTCTAAACGCGTACATCCAGCTGACGAGTCCCAAATAGGACGAAACGCGC

>  <observedResult>
0.9

$$$$
>  <molecule>
RA349 (nucleic acid, expressed or natural sequence) DNA: GCGCGTCCTGGATTCGCGGAAACGCGTACATCCAGCTGACGAGGAGAATACCAGCATCGTCTTGATGCCCTTGGAAGTCTCTCCCAAATAGGACGAAACGCGC

>  <observedResult>
0.9

$$$$

Next molecule, please.
// query For the molecule shown here, RA449 (nucleic acid, expressed or natural sequence) DNA: GCGCGTCCTGGATTCGCGGAAACGCGTACATCCAGCTGACGAGTCCCAAATAGGACGAAACGCGAGTGATACCAGCATCGTCTTGATGCCCTTGGCAGCACTC , give the reported Fold change in RNA expression between the ON state and the OFF state.
// result 0.5
